# tested.system: human 11β-HSD1 (Homo sapiens, UniProt P28845)
# Construct: truncated (24-287aa) human 11β-HSD1 enzyme
# Sequence (P28845 24-287): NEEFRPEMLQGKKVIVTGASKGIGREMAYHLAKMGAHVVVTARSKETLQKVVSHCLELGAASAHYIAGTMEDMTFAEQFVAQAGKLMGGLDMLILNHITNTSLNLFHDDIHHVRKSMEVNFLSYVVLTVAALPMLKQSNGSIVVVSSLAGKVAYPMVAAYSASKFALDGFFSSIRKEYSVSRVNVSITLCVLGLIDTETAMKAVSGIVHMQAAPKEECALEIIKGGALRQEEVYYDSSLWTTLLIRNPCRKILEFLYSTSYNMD
# experiment: Human 11β-HSD1 enzymatic SPA assay
# setup.conditions: truncated (24-287aa) human 11β-HSD1, apparent Ki from IC50 by Cheng-Prusoff
value.type: Ki

Query: Lookup: Ki / human 11β-HSD1 (Homo sapiens, UniProt P28845) / Cc1ccccc1CC(=NC#N)NC1C2CC3CC1CC(O)(C3)C2 (centres unmarked)
Response: > 1000 nM

Query: Lookup: Ki / human 11β-HSD1 (Homo sapiens, UniProt P28845) / CC(C)(Oc1ccccc1)C(=NC#N)NC12CCC(C#N)(CC1)CC2
Response: 100 to 1000 nM

Query: Lookup: Ki / human 11β-HSD1 (Homo sapiens, UniProt P28845) / COC(=O)C12CC3CC(C1)C(N/C(=N/C#N)C(C)(C)Oc1ccc(Cl)cc1F)C(C3)C2 (centres unmarked)
Response: 10 to 100 nM

Query: Lookup: Ki / human 11β-HSD1 (Homo sapiens, UniProt P28845) / CC(C)(Oc1ccc(F)cc1F)C(=NC#N)NC12CC3CC(CC1C3)C2
Response: 10 to 100 nM

Query: Lookup: Ki / human 11β-HSD1 (Homo sapiens, UniProt P28845) / COC(=O)C12CC3CC(C1)C(NC(=S)C(C)(C)OCc1ccc(C(F)(F)F)cc1)C(C3)C2 (centres unmarked)
Response: 100 to 1000 nM

* * *

Please respond with reported Ki for every item in the list.
# tested.system: human 11β-HSD1 (Homo sapiens, UniProt P28845)
# Construct: truncated (24-287aa) human 11β-HSD1 enzyme
# experiment: Human 11β-HSD1 enzymatic SPA assay
# setup.conditions: truncated (24-287aa) human 11β-HSD1, apparent Ki from IC50 by Cheng-Prusoff

Query: What value of measured Ki is listed for CC(C)(Oc1ccc(Cl)cc1)/C(=N\C#N)NC12CC3CC(CC1C3)C2 ?
Response: 0.01 to 0.1 µM

Query: What value of measured Ki is listed for CC(C)(Oc1ccc(Cl)cc1)C(=NC#N)NC1CN2CCC1CC2 (stereo not drawn) ?
Response: > 1 µM

Query: What value of measured Ki is listed for N#CN=C(NC1C2CC3CC1CC(O)(C3)C2)C1(c2ccc(Cl)cc2)CCC1 (stereo not drawn) ?
Response: > 1 µM

Query: What value of measured Ki is listed for CC(C)(Oc1ccc(Cl)cc1F)/C(=N\C#N)NC1CN2CCC1CC2 (stereo not drawn) ?
Response: > 1 µM

Query: What value of measured Ki is listed for CC(C)(Oc1ccc(F)cc1F)C(=NC#N)NC1C2CC3CC1CC(S(C)(=O)=O)(C3)C2 (stereo not drawn) ?
Response: ≤ 0.01 µM

Query: What value of measured Ki is listed for CC(C)(Oc1ccc(Cl)cc1)C(=NC#N)NC1C2CC3CC1CC(C(N)=O)(C3)C2 (stereo not drawn) ?
Response: ≤ 0.01 µM

Query: What value of measured Ki is listed for CC(C)(Oc1ccc(Cl)cc1F)C(=NC#N)NC1CC2CCC1C2 (stereo not drawn) ?
Response: 0.1 to 1 µM

Query: What value of measured Ki is listed for CC(C)(Oc1ccccc1)C(=NC#N)NC12CCC(C(F)F)(CC1)CC2 ?
Response: 0.01 to 0.1 µM

Query: What value of measured Ki is listed for CC(C)(Oc1ccccc1)C(=NC#N)NC12CCC(C(N)=O)(CC1)CC2 ?
Response: 0.01 to 0.1 µM
